Test system: yellow nutsedge (Cyperus esculentus)
procedure.details: Test D pre-/postemergence plant response
Format: in vivo
assay.setup: Postemergence, 125 g ai/ha; scale 0 to 100, 0 no effect, 100 complete control
Measured Plant response rating, Nutsedge, Yellow accompanies every entry in the list below.
endpoint.name: Plant response rating, Nutsedge, Yellow

INSERT INTO results (molecule, endpoint_name, reading) VALUES
  ('Clc1cnc(Oc2ccccc2-c2ccon2)nc1 [Compound 185]', 'Plant response rating, Nutsedge, Yellow', 30),
  ('Clc1cnc(Oc2ccccc2-c2cc(Cl)sn2)nc1 [Compound 192]', 'Plant response rating, Nutsedge, Yellow', 5),
  ('FC(F)(Cl)c1cc(-c2ccccc2Oc2ncc(Cl)cn2)no1 [Compound 143]', 'Plant response rating, Nutsedge, Yellow', 5),
  ('Fc1cccc(Oc2ncc(Cl)cn2)c1-c1cc(C(F)(F)F)no1 [Compound 228]', 'Plant response rating, Nutsedge, Yellow', 10),
  ('FC(Cl)(Cl)c1cc(-c2ccccc2Oc2ncc(Cl)cn2)no1 [Compound 198]', 'Plant response rating, Nutsedge, Yellow', 10),
  ('Cc1cc(-c2ccccc2Oc2ncc(Cl)cn2)no1 [Compound 60]', 'Plant response rating, Nutsedge, Yellow', 5);

* * *

Test system: wild oat (Avena fatua)
procedure.details: Test D postemergence plant response
Format: in vivo
assay.setup: 125 g ai/ha, scale 0 to 100, 0 no effect, 100 complete control
endpoint.name: Plant response rating, Oat, Wild

INSERT INTO measurements (smi, system_name, reading) VALUES
  ('Fc1ccc(Oc2ncc(Cl)cn2)c(-c2cc(C(F)(Cl)Cl)on2)c1', 'wild oat (Avena fatua)', 35),
  ('CC(F)(F)c1cc(-c2ccccc2Oc2ncc(Br)cn2)no1', 'wild oat (Avena fatua)', 5),
  ('Fc1cccc(Oc2ncc(Cl)cn2)c1-c1cc(C2CC2)on1', 'wild oat (Avena fatua)', 60),
  ('Cc1cc(-c2ccccc2Oc2ncc(Cl)cn2)no1', 'wild oat (Avena fatua)', 0),
  ('Cc1cc(-c2c(F)cccc2Oc2ncc(Br)cn2)on1', 'wild oat (Avena fatua)', 10),
  ('FCc1cc(-c2ccccc2Oc2ncc(Cl)cn2)on1', 'wild oat (Avena fatua)', 0);

* * *

System: pigweed (Amaranthus retroflexus)
procedure.details: Test D pre-/postemergence plant response
Format: in vivo
assay.setup: Postemergence, 125 g ai/ha; scale 0 to 100, 0 no effect, 100 complete control
Measured Plant response rating, Pigweed accompanies every entry in the list below.
endpoint.name: Plant response rating, Pigweed

INSERT INTO results (smi, endpoint_name, reading) VALUES
  ('FC(Cl)(Cl)c1cc(-c2ccccc2Oc2ncc(Cl)cn2)no1', 'Plant response rating, Pigweed', 100),
  ('FCc1cc(-c2ccccc2Oc2ncc(Cl)cn2)on1', 'Plant response rating, Pigweed', 90),
  ('FC(F)c1cc(-c2c(Cl)cccc2Oc2ncc(Cl)cn2)no1', 'Plant response rating, Pigweed', 98),
  ('Cn1nnc(-c2ccccc2Oc2ncc(Br)cn2)n1', 'Plant response rating, Pigweed', 30),
  ('Clc1cnc(Oc2ccccc2-c2ccon2)nc1', 'Plant response rating, Pigweed', 50),
  ('FCc1cc(-c2c(Br)cccc2Oc2ncc(Cl)cn2)no1', 'Plant response rating, Pigweed', 60),
  ('FC(F)(F)c1cc(-c2c(Cl)cccc2Oc2ncc(Cl)cn2)no1', 'Plant response rating, Pigweed', 98),
  ('FC(F)c1cc(-c2c(Cl)cccc2Oc2ncc(Cl)cn2)on1', 'Plant response rating, Pigweed', 100),
  ('FC(F)c1cc(-c2c(Cl)cccc2Oc2ncc(Br)cn2)on1', 'Plant response rating, Pigweed', 100),
  ('Fc1cccc(Oc2ncc(Br)cn2)c1-c1cc(C(F)F)on1', 'Plant response rating, Pigweed', 98),
  ('Fc1cccc(Oc2ncc(Cl)cn2)c1-c1cc(C(F)(F)F)no1', 'Plant response rating, Pigweed', 98),
  ('Clc1cnc(Oc2ccccc2-c2cc(C3CC3)on2)nc1', 'Plant response rating, Pigweed', 95);

* * *

Measured Barnyardgrass plant response rating accompanies every entry in the list below.
Test system: barnyardgrass (Echinochloa crus-galli)
procedure.details: Test D pre-/postemergence plant response
Type: in vivo
assay.setup: Postemergence, 16 g ai/ha; scale 0 to 100 (0 no effect, 100 complete control)
endpoint.name: Barnyardgrass plant response rating

INSERT INTO results (compound, endpoint_name, reading) VALUES
  ('FC(F)(Br)c1cc(-c2ccccc2Oc2ncc(Cl)cn2)no1 [Compound 162]', 'Barnyardgrass plant response rating', 5),
  ('Cc1cc(-c2ccccc2Oc2ncc(Cl)cn2)no1 [Compound 60]', 'Barnyardgrass plant response rating', 0),
  ('FC(F)(F)c1cc(-c2c(Cl)cccc2Oc2ncc(Cl)cn2)no1 [Compound 169]', 'Barnyardgrass plant response rating', 5),
  ('FC(Cl)c1cc(-c2ccccc2Oc2ncc(Cl)cn2)no1 (stereo not shown) [Compound 116]', 'Barnyardgrass plant response rating', 5);

* * *

System: small-flower umbrella sedge (Cyperus difformis)
procedure.details: Test C flooded paddy test plant response
Type: in vivo
assay.setup: Flood, 250 g ai/ha; scale of 0 to 100 where 0 is no effect and 100 is complete control; 13 to 15 days
Measured Sedge, Umbrella plant response rating accompanies every entry in the list below.
endpoint.name: Sedge, Umbrella plant response rating

INSERT INTO measurements (molecule, reading) VALUES
  ('FC(c1cc(-c2ccccc2Oc2ncc(Cl)cn2)no1)C(F)(F)F (centres unmarked) [Compound 133]', 80),
  ('CC(C)(F)c1cc(-c2ccccc2Oc2ncc(Cl)cn2)no1 [Compound 236]', 40),
  ('Clc1cnc(Oc2ccccc2-c2cc(C3CC3)on2)nc1 [Compound 183]', 75),
  ('Fc1cccc(Oc2ncc(Cl)cn2)c1-c1cc(C(F)(F)F)no1 [Compound 228]', 90),
  ('CC(=O)c1cc(-c2ccccc2Oc2ncc(Br)cn2)no1 [Compound 150]', 0);

* * *

Tested on: barnyardgrass (Echinochloa crus-galli)
procedure.details: Test D pre-/postemergence plant response
Type: in vivo
assay.setup: Postemergence, 62 g ai/ha; scale 0 to 100, 0 no effect, 100 complete control
Source text: […]
Measured Plant response rating, Barnyardgrass accompanies every entry in the list below.
endpoint.name: Plant response rating, Barnyardgrass

INSERT INTO assay_data (smi, endpoint_name, reading) VALUES
  ('FC(F)(F)c1cc(-c2c(I)cccc2Oc2ncc(Cl)cn2)no1', 'Plant response rating, Barnyardgrass', 5),
  ('FC(F)(Cl)c1cc(-c2ccccc2Oc2ncc(Cl)cn2)no1', 'Plant response rating, Barnyardgrass', 10),
  ('Fc1cccc(Oc2ncc(Cl)cn2)c1-c1cc(C2CC2)on1', 'Plant response rating, Barnyardgrass', 10),
  ('FC(F)c1cc(-c2c(Cl)cccc2Oc2ncc(Br)cn2)on1', 'Plant response rating, Barnyardgrass', 25),
  ('FC(F)(F)c1cc(-c2ccccc2Oc2ncc(Cl)cn2)ncn1', 'Plant response rating, Barnyardgrass', 5),
  ('FC(F)Oc1cccc(Oc2ncc(Cl)cn2)c1-c1cc(C(F)F)on1', 'Plant response rating, Barnyardgrass', 10),
  ('FCc1cc(-c2ccccc2Oc2ncc(Cl)cn2)on1', 'Plant response rating, Barnyardgrass', 10),
  ('FC(F)c1cc(-c2ccccc2Oc2ncc(Br)cn2)on1', 'Plant response rating, Barnyardgrass', 15),
  ('Cc1cc(-c2c(F)cccc2Oc2ncc(Cl)cn2)on1', 'Plant response rating, Barnyardgrass', 5),
  ('Clc1cnc(Oc2ccccc2-c2cc(Cl)sn2)nc1', 'Plant response rating, Barnyardgrass', 5),
  ('FC(F)(F)c1cc(-c2c(Cl)cccc2Oc2ncc(Cl)cn2)no1', 'Plant response rating, Barnyardgrass', 5);

* * *

Test system: waterhemp_RES1 (ALS & Triazine resistant common waterhemp, Amaranthus rudis)
procedure.details: Test F postemergence plant response
Assay type: in vivo
assay.setup: 62 g ai/ha Postemergence; scale 0 to 100
Measured Plant response rating, Waterhemp_RES1 accompanies every entry in the list below.
endpoint.name: Plant response rating, Waterhemp_RES1

INSERT INTO measurements (smi, system_name, endpoint_name, reading) VALUES
  ('FC(F)c1cc(-c2ccccc2Oc2ncc(Br)cn2)no1', 'waterhemp_RES1 (ALS & Triazine resistant common waterhemp, Amaranthus rudis)', 'Plant response rating, Waterhemp_RES1', 100),
  ('CC(F)(F)c1cc(-c2ccccc2Oc2ncc(Br)cn2)no1', 'waterhemp_RES1 (ALS & Triazine resistant common waterhemp, Amaranthus rudis)', 'Plant response rating, Waterhemp_RES1', 90),
  ('Cc1cc(-c2ccccc2Oc2ncc(Cl)cn2)on1', 'waterhemp_RES1 (ALS & Triazine resistant common waterhemp, Amaranthus rudis)', 'Plant response rating, Waterhemp_RES1', 70),
  ('FC(F)(F)c1cc(-c2ccccc2Oc2ncc(Cl)cn2)no1', 'waterhemp_RES1 (ALS & Triazine resistant common waterhemp, Amaranthus rudis)', 'Plant response rating, Waterhemp_RES1', 95);
